# Target: human OX1 receptor (Homo sapiens, UniProt O43613)
# Construct: expressed in transfected cells; host or cells: CHO cells
# Sequence (O43613 whole entry): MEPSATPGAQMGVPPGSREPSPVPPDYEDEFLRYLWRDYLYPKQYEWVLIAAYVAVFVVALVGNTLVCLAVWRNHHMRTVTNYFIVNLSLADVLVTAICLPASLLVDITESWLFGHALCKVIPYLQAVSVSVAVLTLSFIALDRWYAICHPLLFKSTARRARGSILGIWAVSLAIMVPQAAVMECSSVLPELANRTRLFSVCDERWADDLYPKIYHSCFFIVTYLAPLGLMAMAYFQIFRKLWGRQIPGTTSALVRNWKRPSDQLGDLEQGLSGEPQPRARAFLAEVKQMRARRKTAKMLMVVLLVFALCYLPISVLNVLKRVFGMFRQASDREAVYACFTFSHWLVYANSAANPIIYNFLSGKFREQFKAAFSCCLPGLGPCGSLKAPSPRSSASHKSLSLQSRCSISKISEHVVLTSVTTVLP
# Test description: Measurement of orexin receptor antagonistic activity (calcium fluorescence, FLIPRtetra)
# Format: cell-based
# Assay context: CHO, 10 μM test compound; CHO cells expressing human OX1 receptor; OX-A 1 nM; read-out: Human Orexin1 receptor inhibition (at 10 μM)
Recorded metric: inhibition at 10 µM (%)

Cc1nc(N2CCN(C(=O)c3cc(F)c(F)cc3-n3nccn3)C[C@H](C)O2)cc(C(F)(F)F)n1 [Example 107] : 37

(I) Cc1cc(N2OCCN(C(=O)c3ccccc3-n3nccn3)CC2C)nc(C)n1 (stereo not drawn) [Example 188]
(II) Cc1cc(N2CCN(C(=O)c3cc(F)ccc3-n3nccn3)CCO2)nc(C)n1 [Example 14]
# input Which has the smaller recorded inhibition at 10 µM, I or II ? // output: label of the selected item
# output I
(I: 13%, II: 23%)
